testTarget: Dual specificity protein phosphatase 3 (Homo sapiens)
assayName: VHR1 phosphatase inhibitors, biochemical (AID 1878)
conditionContext: recombinant VHR phosphatase, fluorogenic substrate; at 13.3 µM; hits give high values
Hit rate of the full screen: of about 1,000 compounds, about 200 (20%) were called active. Not all results are given here. Potency and affinity values are given separately.
parameter: inhibition (%)
Respond with the bare value in %.

stdin: Field request: inhibition | item: "C/C(=N\NC(=O)c1c(C)nc2ccccn12)c1ccccc1F"
stdout: -12.4

====

testTarget: Dual specificity protein phosphatase 3 (Homo sapiens)
assayName: VHR1 phosphatase inhibitors, biochemical (AID 1878)
conditionContext: recombinant VHR phosphatase, fluorogenic substrate; at 13.3 µM; hits give high values
The campaign covered roughly 1,000 compounds. About 200 (20%) were called active. Not all results are given here. Entries with a potency or affinity are not part of this list.
parameter: inhibition (%)
Respond with the bare value in %.

1) CC(=O)NCCC(=O)N(C)CC1CCN(CCc2cccc(C(F)(F)F)c2)CC1
-21.4
2) CCCOc1ccc(-c2c(C(=O)N/N=C/c3cccnc3)nnn2-c2nonc2N)cc1
96.5

# input for lookup
stdin: Field request: inhibition | item: COc1cc(C(=O)OC2C[C@H]3CC[C@@H](C2)N3C)ccc1O (stereo partly drawn)
stdout: -1.1

====

testTarget: Dual specificity protein phosphatase 3 (Homo sapiens) (UniProt P51452)
Sequence (P51452 whole entry, looked up): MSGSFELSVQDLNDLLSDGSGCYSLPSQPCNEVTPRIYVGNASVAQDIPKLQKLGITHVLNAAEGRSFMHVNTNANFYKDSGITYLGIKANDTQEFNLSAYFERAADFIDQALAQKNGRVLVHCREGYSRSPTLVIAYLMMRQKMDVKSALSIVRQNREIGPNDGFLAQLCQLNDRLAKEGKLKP
assayName: VHR1 phosphatase inhibitors, biochemical (AID 1878)
conditionContext: recombinant VHR phosphatase, fluorogenic substrate; at 13.3 µM; hits give high values
About 200 (20%) of roughly 1,000 compounds were called active. The list is a sample of the results. Measured potencies and affinities stand elsewhere.
parameter: inhibition (%)
Respond with the bare value in %.

1) COc1ccc(Br)cc1/C=N/n1nnnc1N
5.9
2) Cc1ccc(NC(=O)C2CCN(S(=O)(=O)c3ccc4c(c3)NC(=O)CO4)CC2)cc1
-0.8
3) O=S(=O)(NCCc1csc(-c2cccnc2)n1)c1ccc(F)cc1
-3.7
4) COC(=O)CCCC(=O)N1CCC(n2nccc2NC(=O)CCOc2ccccc2)CC1
7.4
5) COc1cc(NC(=O)CN2CCN(c3ccccn3)CC2)cc(OC)c1OC
6
6) COc1ccc(O)c(CN2CCN(CCCc3ccccc3)C(CCO)C2)c1 (configuration not stated)
-8

# input for lookup
stdin: Field request: inhibition | item: COc1ccccc1CNC(=O)C1Cc2cc(S(=O)(=O)N3CCCCC3)ccc2N1C(C)=O (configuration not stated)
stdout: 28.1

====

testTarget: Dual specificity protein phosphatase 3 (Homo sapiens)
assayName: VHR1 phosphatase inhibitors, biochemical (AID 1878)
conditionContext: recombinant VHR phosphatase, fluorogenic substrate; at 13.3 µM; hits give high values
Screen size: about 1,000 compounds; about 200 (20%) were called active. These entries were drawn from the full list. Entries with a potency or affinity are not part of this list.
parameter: inhibition (%)
Respond with the bare value in %.

Known inhibition results, listed for orientation:
1) c1ccc(-c2cc(-c3ccccc3)[n+](-c3ccccc3)c(-c3ccccc3)c2)cc1
-14.8
2) CCOc1cc2[nH]c(=S)n(Cc3ccc(C(=O)NCCN(CC)CC)cc3)c(=O)c2cc1OCC
-9.2
3) O=C(Cn1ccnc1)c1ccc(Cl)cc1
14.8
4) O=c1[nH]c2ccc(NS(=O)(=O)c3ccc(F)c(Cl)c3)cc2[nH]1
-7.2
5) COc1ccc(Br)cc1S(=O)(=O)N1CCCc2ccccc21
-6.5

stdin: Test system Dual specificity protein phosphatase 3 (Homo sapiens); read-out inhibition; what value for "CC(C)(C)c1ccc(O)c(N=Cc2c(O)ccc3ccccc23)c1" ?
stdout: -0.4

stdin: Test system Dual specificity protein phosphatase 3 (Homo sapiens); read-out inhibition; what value for "Cc1ccccc1OCCCN1CCOCC1" ?
stdout: 2

====

inhibition: recorded values
testTarget: Dual specificity protein phosphatase 3 (Homo sapiens) (UniProt P51452)
assayName: VHR1 phosphatase inhibitors, biochemical (AID 1878)
conditionContext: recombinant VHR phosphatase, fluorogenic substrate; at 13.3 µM; hits give high values
The whole screen tested about 1,000 compounds, of which about 200 (20%) were called active. Only a sample is shown. Measured potencies and affinities stand elsewhere.
Respond with the bare value in %.

Known inhibition results, listed for orientation:
1) O=C(CN1CCCCCC1)N/N=C/c1ccc2ccccc2c1
-6.1
2) Cc1cccc(NC(=O)c2cc(-c3ccc(C)c(C)c3O)n[nH]2)c1
8.4
3) CCOC(=O)c1sc2ncnc(Nc3cccc(C(=O)O)c3)c2c1C
-6.2
4) O=C(O)c1ccc(/C=N/NC(=O)c2cc3c(ccc4ccccc43)o2)cc1
98.7

stdin: Field request: inhibition | item: "O=C(NCc1c(O)ccc2ccccc12)c1ccccc1"
stdout: 2.1

stdin: Field request: inhibition | item: Cc1cc(Cl)c2oc(C(=O)NC(C)c3ccncn3)c(C)c2c1 (stereo not given)
stdout: -5.8

stdin: Field request: inhibition | item: "O=C(N/N=C/c1ccc([N+](=O)[O-])o1)c1cc2c(ccc3ccccc32)o1"
stdout: 98.8

stdin: Field request: inhibition | item: "O=C(Nc1ccnn1C1CCN(C2CCCC2)CC1)c1ccccc1"
stdout: -11.4

stdin: Field request: inhibition | item: "O=C(COc1ccccc1)NCCc1cnc[nH]1"
stdout: -4.2

====

testTarget: Dual specificity protein phosphatase 3 (Homo sapiens)
assayName: VHR1 phosphatase inhibitors, biochemical (AID 1878)
conditionContext: recombinant VHR phosphatase, fluorogenic substrate; at 13.3 µM
Among all 1,000 compounds or so, about 200 (20%) were called active. Rule as the data show it: active = inhibition above about 55%; inactive = the rest. Not all results are given here. Results with a measured potency or affinity are listed apart.
Result category, one only: active, inactive

1) Cc1c(C(=O)N2CCCCC2)c(S(=O)(=O)N2CCN(c3ccc(F)cc3)CC2)c(C)n1C
inactive
2) CCc1nnc(NC(=O)CCNC(=O)c2ccco2)s1
inactive
3) Cn1cc(Cl)c(C(=O)Nc2nccs2)n1
inactive
4) CCn1c(=O)n(CC)c2cc(N3CCCC3)c(NC(=O)c3ccccc3F)cc21
inactive
5) O=C(N/N=C/c1cccc([N+](=O)[O-])c1)c1cc2c(ccc3ccccc32)o1
active
6) CCc1ccccc1NC(=O)C1CCCN1S(=O)(=O)c1ccc(-c2ccc(=O)[nH]n2)s1 (stereo unspecified)
inactive

stdin: I'd appreciate the recorded outcome for "CS(=O)(=O)C1=NSC2=NC(=O)/C(=C\c3cccn3-c3ccc(Cl)cc3)C(=N)N21" from this test.
stdout: active

stdin: I'd appreciate the recorded outcome for COc1cccc(CC(NC(C)=O)C(=O)NC2CCN(C(=O)c3ccc(Cl)cc3)CC2)c1 (stereo unspecified) from this test.
stdout: inactive

stdin: I'd appreciate the recorded outcome for "NC(=O)c1ccc(NC(=O)CS(=O)(=O)c2cn(CC(=O)N3CCCC3)c3ccccc23)cc1" from this test.
stdout: inactive

stdin: I'd appreciate the recorded outcome for "Cc1cc(C)c(S(=O)(=O)Nc2ccc(N(C)C)cc2)c(C)c1-n1cnnn1" from this test.
stdout: inactive

stdin: I'd appreciate the recorded outcome for CC1CCN(CCCNC(=O)C2CC(=O)N(CCc3ccccc3)C2)CC1 (stereo unspecified) from this test.
stdout: inactive
